Molecular target: T1, BMPRIb receptor-Fc fusion (UniProt O00238 14-126)
T1 construct: BMP receptor-Fc fusion used at 5 ug/mL; also called ALK-6
T1 sequence (looked up): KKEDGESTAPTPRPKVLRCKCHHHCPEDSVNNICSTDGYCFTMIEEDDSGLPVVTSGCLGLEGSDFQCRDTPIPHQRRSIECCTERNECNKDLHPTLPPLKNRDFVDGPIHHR
Assay: ELISA-like plate assay, captured BMP-7 from conditioned media, receptor-Fc detection
// BMPRIb binding (relative to wild type = 1.0) lookup, one value per entry

The following binders have reported results that may help.
INSERT INTO assay_data (binder, datavalue) VALUES
  ('BMP-7 variant F117Y (ligand, In conditioned media; numbering on mature BMP-7) STGGKQRSQNRSKTPKNQEALRMASVAENSSSDQRQACKKHELYVSFRDLGWQDWIIAPEGYAAYYCEGECAFPLNSYMNATNHAIVQTLVHFINPETVPKPCCAPTQLNAISVLYYDDSSNVILKKYRNMVVRACGCH', '0.73 relative to wild type'),
  ('BMP-7 variant F93T (ligand, In conditioned media; numbering on mature BMP-7) STGGKQRSQNRSKTPKNQEALRMASVAENSSSDQRQACKKHELYVSFRDLGWQDWIIAPEGYAAYYCEGECAFPLNSYMNATNHAIVQTLVHTINPETVPKPCCAPTQLNAISVLYFDDSSNVILKKYRNMVVRACGCH', '0.88 relative to wild type'),
  ('BMP-7 variant N76D (ligand, In conditioned media; numbering on mature BMP-7) STGGKQRSQNRSKTPKNQEALRMASVAENSSSDQRQACKKHELYVSFRDLGWQDWIIAPEGYAAYYCEGECAFPLDSYMNATNHAIVQTLVHFINPETVPKPCCAPTQLNAISVLYFDDSSNVILKKYRNMVVRACGCH', '0.8 relative to wild type'),
  ('BMP-7 variant M23N (ligand, In conditioned media; numbering on mature BMP-7) STGGKQRSQNRSKTPKNQEALRNASVAENSSSDQRQACKKHELYVSFRDLGWQDWIIAPEGYAAYYCEGECAFPLNSYMNATNHAIVQTLVHFINPETVPKPCCAPTQLNAISVLYFDDSSNVILKKYRNMVVRACGCH', '1.36 relative to wild type'),
  ('BMP-7 variant N76Y (ligand, In conditioned media; numbering on mature BMP-7) STGGKQRSQNRSKTPKNQEALRMASVAENSSSDQRQACKKHELYVSFRDLGWQDWIIAPEGYAAYYCEGECAFPLYSYMNATNHAIVQTLVHFINPETVPKPCCAPTQLNAISVLYFDDSSNVILKKYRNMVVRACGCH', '0.46 relative to wild type'),
  ('BMP-7 variant Y78S (ligand, In conditioned media; numbering on mature BMP-7) STGGKQRSQNRSKTPKNQEALRMASVAENSSSDQRQACKKHELYVSFRDLGWQDWIIAPEGYAAYYCEGECAFPLNSSMNATNHAIVQTLVHFINPETVPKPCCAPTQLNAISVLYFDDSSNVILKKYRNMVVRACGCH', '2.75 relative to wild type');

INPUT: Give the measured BMPRIb binding (relative to wild type = 1.0) for BMP-7 variant F73S (ligand, In conditioned media; numbering on mature BMP-7) STGGKQRSQNRSKTPKNQEALRMASVAENSSSDQRQACKKHELYVSFRDLGWQDWIIAPEGYAAYYCEGECASPLNSYMNATNHAIVQTLVHFINPETVPKPCCAPTQLNAISVLYFDDSSNVILKKYRNMVVRACGCH
OUTPUT: 0.25 relative to wild type

INPUT: State, in one line, measured BMPRIb binding (relative to wild type = 1.0) of BMP-7 variant R48Q (ligand, In conditioned media; numbering on mature BMP-7) STGGKQRSQNRSKTPKNQEALRMASVAENSSSDQRQACKKHELYVSFQDLGWQDWIIAPEGYAAYYCEGECAFPLNSYMNATNHAIVQTLVHFINPETVPKPCCAPTQLNAISVLYFDDSSNVILKKYRNMVVRACGCH
OUTPUT: 0.85 relative to wild type

INPUT: Answer with the recorded BMPRIb binding (relative to wild type = 1.0) for the binder listed here: BMP-7 variant Y78R (ligand, In conditioned media; numbering on mature BMP-7) STGGKQRSQNRSKTPKNQEALRMASVAENSSSDQRQACKKHELYVSFRDLGWQDWIIAPEGYAAYYCEGECAFPLNSRMNATNHAIVQTLVHFINPETVPKPCCAPTQLNAISVLYFDDSSNVILKKYRNMVVRACGCH
OUTPUT: 2.39 relative to wild type

INPUT: Tell me BMPRIb binding (relative to wild type = 1.0) reported for BMP-7 variant S77E (ligand, In conditioned media; numbering on mature BMP-7) STGGKQRSQNRSKTPKNQEALRMASVAENSSSDQRQACKKHELYVSFRDLGWQDWIIAPEGYAAYYCEGECAFPLNEYMNATNHAIVQTLVHFINPETVPKPCCAPTQLNAISVLYFDDSSNVILKKYRNMVVRACGCH
OUTPUT: 0.94 relative to wild type

INPUT: Entry BMP-7 variant V26G (ligand, In conditioned media; numbering on mature BMP-7) STGGKQRSQNRSKTPKNQEALRMASGAENSSSDQRQACKKHELYVSFRDLGWQDWIIAPEGYAAYYCEGECAFPLNSYMNATNHAIVQTLVHFINPETVPKPCCAPTQLNAISVLYFDDSSNVILKKYRNMVVRACGCH needs its BMPRIb binding (relative to wild type = 1.0) filled in; supply it.
OUTPUT: 1.66 relative to wild type

INPUT: Indicate the recorded BMPRIb binding (relative to wild type = 1.0) value for this binder: BMP-7 variant V123G (ligand, In conditioned media; numbering on mature BMP-7) STGGKQRSQNRSKTPKNQEALRMASVAENSSSDQRQACKKHELYVSFRDLGWQDWIIAPEGYAAYYCEGECAFPLNSYMNATNHAIVQTLVHFINPETVPKPCCAPTQLNAISVLYFDDSSNGILKKYRNMVVRACGCH
OUTPUT: 0.17 relative to wild type
